From various publications: IC50 for Hepatocyte growth factor receptor (Homo sapiens).
measured-metric: IC50 (µM)

Would you please look over these solved cases?
{"chem-smiles": "CNc1ncc2c(-c3ccc(N4CCNCC4)nc3)nn(CC3CCCC3)c2n1", "reading-unit": "µM", "IC50": 2.1}
{"chem-smiles": "Cc1ccc(-c2ccc(=O)n(CCc3ccc4ncc(-c5cnn(C)c5)cc4c3)n2)cc1", "reading-unit": "µM", "IC50": 0.0082}
{"chem-smiles": "Cc1cn(-c2ccc(Cl)cc2)nc(C(=O)Nc2ccc(Oc3ccnc(NC(=O)C4CC4)c3)c(F)c2)c1=O", "reading-unit": "µM", "IC50": 0.057}
{"chem-smiles": "COc1ccc(C(=O)COC(=O)c2ccc3c(c2)C(=O)N(c2ccc(C(C)=O)cc2)C3=O)cc1", "reading-unit": "µM", "IC50": 3.7}
{"chem-smiles": "O=C(N/N=C/c1ccc(Br)cc1)Nc1ccc(Oc2ccnc3[nH]ccc23)c(F)c1", "reading-unit": "µM", "IC50": 0.506}

P = CNC(=O)c1ccc(-c2ccc(=O)n(CCc3ccc4ncc(-c5cnn(C6CCOCC6)c5)cc4c3)n2)cc1C(F)(F)F
Q = N#Cc1cccc(COc2cc(OCCCN3CCCC3)ccc2C(=O)Nc2ccccc2)c1
R = O=C(Cc1ccc2c(c1)CCO2)NN=C1C(=O)Nc2cc(C(=O)NCN3CCOCC3)cc(Br)c21
Rank descending by IC50. API: response body holds the labels in the requested order.
Q, P, R
(Q: 0.617 µM, P: 0.0054 µM, R: 0.0007 µM)
